Cited source for all entries: ChEMBL document CHEMBL4483862

Tested on: Plasmodium berghei
Assay: Luciferase/luciferin-expressing antifolate-resistant parasites were used to infect a culture of HepG2 cells that were pre-incubated with compounds. Infected hepatocytes emit light due to the luciferase reaction. Assay results are presented as the percent inhibition of light emission compared to control. […]
Type: functional
Conditions: sporozoite, read-out: LUCIFERASE INFECTION ASSAY - IC90
Listed next: entries and their corresponding IC90.

Worked examples follow.
compound: CCOC(=O)c1c(S(=O)(=O)Nc2ccc([N+](=O)[O-])cc2)c(-c2ccccc2)n(-c2ccccc2)c1C
IC90: > 6.53 µM

compound: CCC(Nc1nc(C(F)(F)F)nc2ccccc12)c1ccc(Br)cc1 (stereo not drawn)
IC90: > 10 µM

compound: CCOC(=O)c1c(N)sc(Sc2ccccc2[N+](=O)[O-])c1-c1ccccc1
IC90: > 10 µM

So, CC(=O)c1cnc(N)nc1C ? Its IC90 was > 21.8 µM

So, CCn1ncc2c(C(=O)Nc3nc(-c4ccc(OC)cc4OC)cs3)cc(-c3cccs3)nc21 ? Its IC90 was > 10 µM

So, O=C(NCCN1CCc2ccccc2C1)c1cc2ccccc2cc1O ? Its IC90 was 3.77 µM

So, O=C(Nc1cccc(C(F)(F)F)c1)Nc1ccccc1Sc1c(Cl)cncc1Cl ? Its IC90 was > 7.2 µM

So, CC(C)N(C(=O)CSc1ccc(F)c(F)c1)c1ccc(Nc2ccccc2)cc1 ? Its IC90 was 6.35 µM

So, COc1ccc(-c2nn(-c3ccccc3)cc2/C=C/C(=O)Nc2nc3c(C)cccc3s2)cc1OC ? Its IC90 was > 10 µM
